readout-label: melting point

Check out these entries, answers already filled in.
>>> result("OCC(O)Cn1ncc2c(N(Cc3cccc(Cl)c3)C3CCCC3)ncnc21 (stereo not given)")
"98 to 100 °C"
>>> result("CCc1cc(C(=O)OC(C)C)c2cc(C(C)C)cccc1-2")
"69 to 71 °C"
>>> result("CC(C)(C)C(=O)C(C#N)C(=O)c1ccc(S(C)(=O)=O)cc1Cl (stereo not given)")
"144 °C"

Please state, for each entry, its recorded melting point.
1. COc1cc(CNc2n[nH]c3ncnc(Nc4cccc(Cl)c4)c23)cc(OC)c1OC
2. CCCCOc1ccccc1Nc1ncc(C(=O)O)c(=O)[nH]1

240 to 245 °C
212 to 214 °C

----------
Give measured melting point for each item. Keep answers brief.

>>> result("C=C1N(CCC)C(=O)OC12CCN(Cc1ccccc1)CC2")
"70 to 71 °C"
>>> result("CS(=O)(=O)c1ccc(C(O)c2ccc3ccccc3c2)cc1 (stereo not given)")
"100 °C"
>>> result("CN1C(=O)CC(=O)N(C2CCCCC2)C1=O")
"81 to 82 °C"
>>> result("CSc1nnc2ccc3ccccc3n12")
"115 to 116 °C"
>>> result("Cc1ccccc1C(=O)CN1C(=O)C(NC(=O)Nc2cccc(-c3nnn[nH]3)c2)N=C(C2CCCCC2)c2cccc(C)c21 (stereo not given)")
"165 to 177 °C"
>>> result("CCN(C(C)=O)c1cccc(-c2ccc3nnc(C)n3n2)c1")
"180 to 185 °C"

Please state, for each entry, its recorded melting point.
1. COc1ccc(C2C3=C(COC3=O)Nc3ccc4cn[nH]c4c32)cc1O (stereo not given)
2. Cc1cccc(C2CCN(CCCCCC(=O)N3Cc4ccccc4C3)CC2)c1C#N
3. Cc1c(N2C[C@@H](NC(=O)OC(C)(C)C)C3(CC3)C2)c(F)c(N)c2c(=O)c(C(=O)O)cn(C3CC3)c12
4. C[C@H]1OC(=O)[C@@H](N)[C@@H]1C(=O)O

1. 243 to 245 °C
2. 132 °C
3. 218 to 219 °C
4. 196 to 200 °C

----------
readout-label: melting point

Check out these entries, answers already filled in.
>>> result("COc1cc(OC)nc(Oc2ccc(N)nc2C(=O)ON=C(C)C)n1")
"210 to 214 °C"
>>> result("CSCc1nnc2n1-c1sc(Cl)cc1C(c1ccccc1Cl)=NC2")
"200 to 202 °C"
>>> result("CCOC(=O)c1cc2cccc(NS(C)(=O)=O)c2[nH]1")
"157 to 158 °C"
>>> result("Cc1c(O)c(C)c2c(C)cn(C(=O)C(C)(C)C)c2c1C")
"152 to 153 °C"
>>> result("CC(C)c1nc(-c2ncn3c2[C@@H]2CCCN2C(=O)c2c(Cl)cccc2-3)no1")
"195 to 196 °C"

Please state, for each entry, its recorded melting point.
1. Cc1cc2cc(CN3CCOCC3)cnc2cc1NC(=O)c1ccc(-c2ccc(F)cc2)cc1
2. CCOC(=O)c1cc(-c2ccc(OC)cc2)n(-c2ccc(OC)cc2)n1
3. O=S(=O)(Cc1noc(-c2ccccc2)n1)c1ccc(CCNCC(O)c2ccc(OC(F)(F)F)cc2)cc1 (stereo not given)
4. Cc1noc(CCCCCCCOc2ccc(C3=NCCO3)cc2)c1CCl
5. Fc1cc(F)cc(CN2CCN(c3cc(-c4ccccc4)c(C(F)(F)F)nn3)CC2)c1

1: 153 to 158 °C; 2: 97 to 98 °C; 3: 125 to 127 °C; 4: 103 to 104 °C; 5: 139 °C

Data origin: a melting point compilation (Tetko et al.; mined from patent text by program, amines drawn as free bases though some values may be those of a salt)
